- STUDY_SYSTEM: GRIP2_3, Q9C0E4
- Sequence (Q9C0E4 238-339): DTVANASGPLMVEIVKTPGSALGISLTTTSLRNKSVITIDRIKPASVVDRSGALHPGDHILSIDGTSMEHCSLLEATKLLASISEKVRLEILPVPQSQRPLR
- MEASUREMENT_DESCRIPTION: holdup assay
- Design: key: below the threshold = too weak to quantify, mostly under pKd 3.1 to 4
- TEST_SETTINGS: plain residues with an end cap or a label only (N-terminal biotin on a linker: ttds)
RECORDED_ENDPOINT: pKd

>>> df
                          binder  recorded_endpoint      reported_result
0     GQDSREETQL [KCNT2, Q6UVM3]                pKd  below the threshold
1     STLTIFETAL [ABCC4, O15439]                pKd  below the threshold
2     RSLEEEESQL [GRASP, Q7Z6J2]                pKd  below the threshold
3  SSRTRRETQL [HPV16-E6, P03126]                pKd  below the threshold
4  SRPQRTQTQV [HPV67-E6, A4U7F2]                pKd  below the threshold
